Molecular target: Cellular tumor antigen p53 (Homo sapiens) (UniProt P04637)
Sequence (P04637 whole entry, looked up): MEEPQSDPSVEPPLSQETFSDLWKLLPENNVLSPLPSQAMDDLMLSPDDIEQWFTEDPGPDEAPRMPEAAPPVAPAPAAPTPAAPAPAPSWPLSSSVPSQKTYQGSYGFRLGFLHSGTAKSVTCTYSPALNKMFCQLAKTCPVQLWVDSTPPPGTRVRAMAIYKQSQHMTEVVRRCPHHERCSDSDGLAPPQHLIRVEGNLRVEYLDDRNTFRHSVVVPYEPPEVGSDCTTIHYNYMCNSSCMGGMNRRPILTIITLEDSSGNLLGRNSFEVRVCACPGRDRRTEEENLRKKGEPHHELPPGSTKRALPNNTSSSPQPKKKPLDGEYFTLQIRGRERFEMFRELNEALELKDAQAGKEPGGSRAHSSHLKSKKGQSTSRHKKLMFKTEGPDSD
Assay: TOX21_p53_BLA_p3_ratio: Tox21 HCT-116 p53 Agonism Beta-lactamase Assay, Ratio, Phase 3 (AID 2283596)
Results filed as inconclusive are left out. The source made the active and inactive calls. The calls were made as follows: active = hit-call score of the fitted dose curve at least 0.9, where 1 is the maximum; inconclusive = response in the unintended direction; inactive = score below 0.9.
Outcome codes: 1 for active, -1 for inactive

STRUCTURE	SYSTEM TESTED	CAT
Cn1cnc2c(F)c(Nc3ccc(Br)cc3Cl)c(C(=O)NOCCO)cc21	Cellular tumor antigen p53 (Homo sapiens) (UniProt P04637)	-1
CC(C)(C)CC(C)(C)c1ccc(O)c(Cc2ccc(Cl)cc2Cl)c1	Cellular tumor antigen p53 (Homo sapiens) (UniProt P04637)	1
CC[C@@H](C(=O)[C@@H](C)[C@@H](O)[C@H](C)[C@@H]1O[C@@H]([C@@H](CC)C(=O)O)CC[C@@H]1C)[C@H]1O[C@]2(C=C[C@@H](O)[C@]3(CC[C@@](C)([C@H]4CC[C@](O)(CC)[C@H](C)O4)O3)O2)[C@H](C)C[C@@H]1C	Cellular tumor antigen p53 (Homo sapiens) (UniProt P04637)	-1
C1COC(NC(C2CC2)C2CC2)=N1	Cellular tumor antigen p53 (Homo sapiens) (UniProt P04637)	-1
